target: Muscarinic acetylcholine receptor M5 (Homo sapiens); conditions: Compound concentration 10 µM; call rule not given here
Pick from 1.0 for active, 0.0 for inactive when you respond.

Exercise: Returns: the outcome recorded for CN(C(=O)Cc1ccc(Cl)c(Cl)c1)C(CN1CCCC1)c1cccc(OCC(=O)O)c1 (centres undefined) in this assay.
Solution: 1.0

Exercise: Returns: the outcome recorded for CC(C)NCC(O)COc1cccc2ccccc12 (centres undefined) in this assay.
Solution: 0.0

Exercise: Returns: the outcome recorded for CCCn1c(=O)c2[nH]c(-c3cnn(Cc4cccc(C(F)(F)F)c4)c3)nc2n(CC)c1=O in this assay.
Solution: 0.0

Exercise: Returns: the outcome recorded for CN1CCN(c2ccc(Nc3c4ccccc4nc4ccccc34)cc2)CC1 in this assay.
Solution: 0.0

Exercise: Returns: the outcome recorded for CN1CCC(C(=O)c2cccc(NC(=O)c3c(F)cc(F)cc3F)n2)CC1 in this assay.
Solution: 1.0

Exercise: Returns: the outcome recorded for COc1ccc(C2(O)OC(=O)C(c3ccc4c(c3)OCO4)=C2Cc2cc(OC)c(OC)c(OC)c2)cc1 (centres undefined) in this assay.
Solution: 0.0

Exercise: Returns: the outcome recorded for CCCCCNC(=N)N/N=C/c1c[nH]c2ccc(OC)cc12 in this assay.
Solution: 0.0

Exercise: Returns: the outcome recorded for CO[C@@H]1COCC[C@@H]1N[C@@H]1CC[C@@](C(=O)N2CCc3ncc(C(F)(F)F)cc3C2)(C(C)C)C1 in this assay.
Solution: 0.0

Exercise: Returns: the outcome recorded for CC(C)(N)C(=O)N[C@H](COCc1ccccc1)C(=O)N1CCC2(CC1)CN(S(C)(=O)=O)c1ccccc12 in this assay.
Solution: 0.0
